ASSAY_REMARKS: Drug level in blood of Sprague-Dawley rat at 1 mg/kg, po after 0.25 hrs in absence of glucuronidase
Type: ADME, organism-based
Parameters: dose 1 mg/kg, route oral
RUN_CONDITIONS: read-out: Drug uptake
VALUE_KIND: concentration at 0.25 h (ng/mL)
Could you give me the number in ng/mL? Just the number is fine.

[[record]]
smiles_structure = "COc1cc(O)cc(C)c1[C@@H]1CN[C@H](C(=O)N2CCC[C@H]2C#N)C1"
result_unit = "ng/mL"
meas_value = 0.49


Data request: Look up concentration at 0.25 h: Cc1cc(C)c([C@@H]2CN[C@H](C(=O)N3CCC[C@H]3C#N)C2)c(C)c1O
Data returned: 9.7

====

ASSAY_REMARKS: Stability in Tris buffer at pH 7.4
Assay type: physicochemical
Class true (1): half-life at least 30 h. Class false (0): half-life below 30 h.

Example cases with answers are listed next.
[[record]]
smiles_structure = "N#C[C@@H]1CCCN1C(=O)[C@@H]1C[C@H](c2ccc(O)cc2)CN1"
label = "false (0)"

[[record]]
smiles_structure = "COc1cc(O)cc(OC)c1[C@@H]1CN[C@H](C(=O)N2CCC[C@H]2C#N)C1"
label = "true (1)"

[[record]]
smiles_structure = "Cc1cc(O)cc(C)c1[C@@H]1CN[C@H](C(=O)N2CCC[C@H]2C#N)C1"
label = "true (1)"

[[record]]
smiles_structure = "Cc1cc(C)c([C@@H]2CN[C@H](C(=O)N3CCC[C@H]3C#N)C2)c(C)c1O"
label = "true (1)"

[[record]]
smiles_structure = "CCc1cc(O)cc(C)c1[C@@H]1CN[C@H](C(=O)N2CCC[C@H]2C#N)C1"
label = "true (1)"

[[record]]
smiles_structure = "N#C[C@@H]1CCCN1C(=O)[C@@H]1C[C@H](c2ccccc2O)CN1"
label = "false (0)"

[[record]]
smiles_structure = "Cc1ccc(O)c(C)c1[C@@H]1CN[C@H](C(=O)N2CCC[C@H]2C#N)C1"
label = "true (1)"

[[record]]
smiles_structure = "COc1cc(O)cc(C)c1[C@@H]1CN[C@H](C(=O)N2CCC[C@H]2C#N)C1"
label = "true (1)"


Data request: Given the entry N#C[C@@H]1CCCN1C(=O)[C@@H]1C[C@H](c2cccc(O)c2)CN1 , answer whether its half-life meets or surpasses 30 h.
Data returned: false (0)

====

// reported inhibition in vivo at 1 mg/kg per item
Organism: Rattus norvegicus
ASSAY_REMARKS: animal or person
RUN_CONDITIONS: Sprague-Dawley, Plasma, po, 10 h, read-out: Inhibition
Description: Ex vivo inhibition of DPP4 in Sprague-Dawley rat plasma at 1 mg/kg, po after 10 hrs
Could you give me the number in %? Just the number is fine.

Before answering, review these 5 worked examples.
[[record]]
smiles_structure = "Cc1ccc(O)c(C)c1[C@@H]1CN[C@H](C(=O)N2CCC[C@H]2C#N)C1"
meas_value = 83

[[record]]
smiles_structure = "COc1cc(O)cc(OC)c1[C@@H]1CN[C@H](C(=O)N2CCC[C@H]2C#N)C1"
meas_value = 66

[[record]]
smiles_structure = "Cc1cc(O)cc(C)c1[C@@H]1CN[C@H](C(=O)N2CCC[C@H]2C#N)C1"
meas_value = 57

[[record]]
smiles_structure = "COc1c(O)ccc(C)c1[C@@H]1CN[C@H](C(=O)N2CCC[C@H]2C#N)C1"
meas_value = 86

[[record]]
smiles_structure = "COc1cc(O)cc(C)c1[C@@H]1CN[C@H](C(=O)N2CCC[C@H]2C#N)C1"
meas_value = 73


Switching to the query record.
Data request: Look up inhibition in vivo at 1 mg/kg: CCOc1cc(O)cc(OCC)c1[C@@H]1CN[C@H](C(=O)N2CCC[C@H]2C#N)C1
Data returned: 50

====

ASSAY_REMARKS: Drug level in blood of Sprague-Dawley rat at 1 mg/kg, po after 2 hrs in absence of glucuronidase
Type: ADME, organism-based
Set-up: dose 1 mg/kg, route oral
RUN_CONDITIONS: read-out: Drug uptake
VALUE_KIND: concentration at 2 h (ng/mL)
Could you give me the number in ng/mL? Just the number is fine.

Data request: Look up concentration at 2 h: Cc1cc(C)c([C@@H]2CN[C@H](C(=O)N3CCC[C@H]3C#N)C2)c(C)c1O
Data returned: 0.65
